Data credit: PubChem BioAssay (NCATS)

- System: C33A
- experimentalDetails: Primary qHTS to identify gynecologic anti-cancer compounds using libraries of approved drugs and bioactive compounds (AID 1345084); further: nearly all actives have a fitted effect of over 55% in size
- conditionParameters: Gynecologic cancer cell panel viability, ATPlite luminescence, 48 h; series mostly up to 57.5 µM
- From the text: National Center for Advancing Translational Sciences [NCATS] Assay Overview: Chemotherapeutic drug responses vary from cancer to cancer and from patient to patient. […] ATPlite is a luminescence based assay reliant on the conversion of a luciferase substrate to light in the presence of ATP. As a cytotoxic compound will suppress growth and decrease the number of cells, the concentration of ATP will decrease, and less light signal will be detected in the well. […]
Records with an inconclusive call do not appear. Active and inactive are the calls of the source. The call rests on the fitted dose curve; in most records, active means well fitted cell-killing curve with a large enough effect; inconclusive means small, poorly fitted or top-dose-only effect, or effect the other way; inactive means flat fitted curve, though single readings scatter.
# valid calls are true (active), false (inactive); nothing else

# molecule, classAssignment
rows = [
    ("CCOC(=O)[C@@H](N)Cc1ccc(-c2cc(O[C@H](c3ccc(Cl)cc3-n3ccc(C)n3)C(F)(F)F)nc(N)n2)cc1", "false"),
    ("CCN(CC)Cc1ccc2cc(COC(=O)Nc3ccc(C(=O)NO)cc3)ccc2c1", "true"),
    ("N#Cc1c(C2CCNCC2)cc(-c2c(O)cccc2OCC2CC2)nc1N", "false"),
    ("CCc1nc(-c2cccc(C)c2)c(-c2ccnc(NC(=O)c3ccccc3)c2)s1", "false"),
    ("CC(C)c1cc(C(C)C)c(CC(=O)NS(=O)(=O)Oc2c(C(C)C)cccc2C(C)C)c(C(C)C)c1", "false"),
    ("Cc1cn([C@@H]2O[C@H](CO)[C@@H](O)[C@H]2F)c(=O)[nH]c1=O", "false"),
]

How did this test come out for Cc1ccccc1C(=O)Nc1ccc(C(=O)N2CCCC(O)c3cc(Cl)ccc32)c(C)c1 (centres undefined) ?
false

// return assay outcome for `CN1CCc2c(c3ccccc3n2Cc2ccc(C(=O)NO)cc2)C1`
false

Hey, what did the test say about `COc1ccc(S(=O)(=O)Nc2cccnc2Nc2ccc(O)cc2)cc1` ?
true

====

- experimentalDetails: qHTS to identify inhibitors of the type 1 interferon - major histocompatibility complex class I in skeletal muscle: primary screen against the NCATS Mechanism Interrogation Plate v5.0 (MIPE) Libary (AID 1347411); further: nearly all actives have a fitted effect of over 65% in size
- conditionParameters: iHSKM cells + IFN-b, HiBiT-tagged MHC-I luminescence, 24 h; series mostly up to 45.8 µM
Inconclusive results are not listed. Calls of active or inactive are those of the source. The call rests on the fitted dose curve; in most records, active means well fitted inhibition curve with a large enough effect; inconclusive means small, poorly fitted or top-dose-only effect; inactive means no such curve, though single readings can be large or run the other way. Starred links: 1 amine or outer side, 2 acyl side, 3 side chain; linkers in the order of their positions; H or OH if unused. Positions of bridges follow the written chain, without caps; N, C: chain ends. Non-standard residues stand in square brackets, D forms with d. Residues, ends and D or L forms follow the SMILES beside them. Chains are numbered I, II in the order given. Actinocin(9to1) = Cc1c2oc3c(C)ccc(C(=O)[*:1])c3nc-2c(C(=O)[*:2])c(N)c1=O; NMeV = CN[CH](C(=O)O)C(C)C; Sar = CNCC(=O)O
Allowed answers: 1 (active), 0 (inactive)

The following compounds have reported results that may help.
# compound, classAssignment
records = [
    ("c1coc(CNc2ncnc3nc[nH]c23)c1", 0),
    ("CC(=O)OC[C@@H]1O[C@@H](n2ccc(=O)[nH]c2=O)[C@H](OC(C)=O)[C@H]1OC(C)=O", 0),
    ("C[C@@H]1C(=O)O[C@H]2CC34[C@H]5C[C@@H](C(C)(C)C)C36[C@H](OC(=O)[C@@H]6O)O[C@@]4(C(=O)O5)[C@]21O (stereo not given in full)", 0),
    ("Cc1c2oc3c(C)ccc(C(=O)NC4C(=O)NC(C(C)C)C(=O)N5CCCC5C(=O)N(C)CC(=O)N(C)C(C(C)C)C(=O)OC4C)c3nc-2c(C(=O)NC2C(=O)NC(C(C)C)C(=O)N3CCCC3C(=O)N(C)CC(=O)N(C)C(C(C)C)C(=O)OC2C)c(N)c1=O (stereo not given) (I: TVP[Sar][NMeV] / II: TVP[Sar][NMeV]; ester I:1-I:C, II:1-II:C; linker I:N-II:N via Actinocin(9to1); configuration not given here)", 1),
    ("CCOC(=O)[C@@H](N)Cc1ccc(-c2cc(O[C@H](c3ccc(Cl)cc3-n3ccc(C)n3)C(F)(F)F)nc(N)n2)cc1", 1),
    ("CCCc1nc(C(C)(C)O)c(C(=O)O)n1Cc1ccc(-c2ccccc2-c2nn[nH]n2)cc1", 0),
    ("Nc1nc(N)c2nc(-c3cccc(O)c3)c(-c3cccc(O)c3)nc2n1", 0),
    ("C=CC(=O)N1CCc2ccc(-n3c(=O)ccc4cnc5ccc(-c6cnn(C)c6)cc5c43)cc21", 1),
]

Name the outcome recorded for `CCS(=O)(=O)Nc1ccc2[nH]c(O)c(C(=Nc3ccc(CN4CCCCC4)cc3)c3ccccc3)c2c1` in the assay.
1

// param item: `COC(=O)[C@H](CCCN=C(N)N)NS(=O)(=O)c1ccc(C)cc1` ; yields the recorded call
0

How was OCCNC1CCCc2c1[nH]c1ccc(-c3ccccc3)cc21 (stereo not given) classified in this test?
1

Entry `COc1cccc2c1C(=O)c1c(O)c3c(c(O)c1C2=O)C[C@@](O)(C(=O)CO)C[C@@H]3O[C@H]1C[C@H](N)[C@@H](O)[C@H](C)O1` : call = ?
1

Per the assay record, what outcome was assigned to `CN(C)CCN1C(=O)c2cccc3cc(N)cc(c23)C1=O` ?
1

Recorded test outcome, item `NC(=O)Nc1cc(-c2ccc(CN3CCOCC3)cc2)sc1C(N)=O`
1

Could you kindly confirm the outcome this assay logged for `CC(C)C[C@H](NC(=O)[C@@H](NC(=O)c1cccc(-c2ccccc2)n1)[C@@H](C)O)B(O)O` ?
1

====

- experimentalDetails: qHTS of pediatric cancer cell lines to identify multiple opportunities for drug repurposing: Primary screen for SK-N-MC cells (AID 1347093)
- conditionParameters: SK-N-MC viability, CellTiter-Glo luminescence, 48 h; series mostly up to 46 µM
Records with an inconclusive call do not appear. Active and inactive are the calls of the source. The call rests on the fitted dose curve; in most records, active means well fitted cell-killing curve with a large enough effect; inconclusive means small, poorly fitted or top-dose-only effect; inactive means no such curve, though single readings can be large or run the other way.
Response enum: active, inactive

Consider the worked cases shown below.
# molecule, classAssignment
records = [
    ("O=c1[nH]c(=O)n([C@H]2C[C@@H](O)[C@@H](CO)O2)cc1C=CBr", "inactive"),
    ("CS[C@H]1SC[C@@H]2C(=O)N(C)[C@H](C(C)C)C(=O)OC[C@H](NC(=O)c3cnc4ccccc4n3)C(=O)N[C@H](C)C(=O)N(C)[C@@H]1C(=O)N(C)[C@H](C(C)C)C(=O)OC[C@H](NC(=O)c1cnc3ccccc3n1)C(=O)N[C@H](C)C(=O)N2C", "active"),
    ("O=C(CN1C(=O)C2(CCCC2)NC[C@H]1c1cc(F)cc(F)c1)Nc1ccc2c(c1)C[C@@]1(C2)C(=O)Nc2ncccc21", "inactive"),
    ("COc1cccc2c1C(=O)c1c(O)c3c(c(O)c1C2=O)C[C@@](O)(C(C)=O)C[C@H]3O[C@H]1C[C@H](N)[C@H](O)[C@H](C)O1", "active"),
    ("C[C@@H](Cc1cc2c(c(C(N)=O)c1)N(CCCO)CC2)NCCOc1ccccc1OCC(F)(F)F", "inactive"),
]

Call for entry `CC(=O)O[C@H]1C[C@@H]2CC[C@H]3[C@H]4C[C@H]([N+]5(C)CCCCC5)[C@@H](OC(C)=O)[C@@]4(C)CC[C@@H]3[C@@]2(C)C[C@H]1[N+]1(C)CCCCC1` :
inactive

How was `CC1(C)CC(O)CC(C)(C)N1[O]` classified in this test?
inactive

Test call, this molecule: `C=CCNC1=C2C[C@@H](C)C[C@H](OC)[C@@H](O)[C@@H](C)C=C(C)[C@H](OC(N)=O)[C@@H](OC)C=CC=C(C)C(=O)NC(=CC1=O)C2=O`
active

State the result this test recorded for `N#CC(=Cc1ccc(O)c(O)c1)C(=O)NCc1ccccc1` .
active

# lookup: test call for `C[C@H]1COc2c(N3CCN(C)CC3)c(F)cc3c(=O)c(C(=O)O)cn1c23`
inactive

Assay outcome for `CN1CCCN(C(=O)c2cccc(-c3ccc(C=C4C(=O)Nc5ccc(Cl)cc54)o3)c2)CC1` : what was it?
active

What call does the record list for CC(C)C[C@H](NC(=O)CNC(=O)c1cc(Cl)ccc1Cl)B1OC(=O)CC(CC(=O)O)(C(=O)O)O1 (stereo partly specified) ?
active

Called result for CC(O)(C#Cc1ccc2c(c1)N(c1nc(N)ncc1Cl)CC2)c1nccs1 (stereo unspecified)
active

Could you please tell me the result logged for `COc1ccc(C=Cc2cc(OC)c(OC)c(OC)c2)cc1NC(=O)[C@H](N)CO` in this assay?
active

Outcome logged for `C=CC1=C(C(=O)O)N2C(=O)[C@@H](NC(=O)C(=NO)c3csc(N)n3)[C@H]2SC1` in this assay:
inactive

Would you mind telling me which call this test gave `COc1cc([C@@H]2c3cc4c(cc3[C@@H](O[C@@H]3O[C@@H]5CO[C@@H](c6cccs6)O[C@@H]5[C@H](O)[C@@H]3O)[C@H]3COC(=O)[C@H]23)OCO4)cc(OC)c1O` ?
active

Query: recorded result category for `CC(=CC(=O)Nc1ccccc1C(=O)O)c1ccc2ccccc2c1` in this test
active

Dear colleague, could you share the recorded outcome for `O=c1[nH]c(=O)n([C@H]2C[C@@H](O)[C@@H](CO)O2)cc1F` when you have a moment?
active

Assay outcome for `Oc1ccc(-c2ccc(-c3cc(Nc4cccc(CNC5CC5)c4)n[nH]3)cc2)c(O)c1` : what was it?
active

Hello, I am checking results. What call was entered for `C[N+]1(C)[C@@H]2C[C@@H](OC(=O)C(O)(c3cccs3)c3cccs3)C[C@H]1[C@@H]1O[C@@H]12` ?
inactive
